Tested on: A2780/Taxol
TEST PROTOCOL: Cytotoxicity against human A2780/Taxol cells assessed survival rate at 10 uM incubated for 48 hrs by MTT assay
Assay type: functional
METRIC NAME: Cell survival rate (%)
Report the value in % with no unit label.

CCc1cc(=O)c2ccc(OC(C)C)c(CNc3cc(OC)c(OC)c(OC)c3)c2o1	86

Entry COc1ccc(CCN(C)CCCC(C#N)(c2ccc(OC)c(OC)c2)C(C)C)cc1OC (configuration not stated) has what Cell survival rate? 81

Another compound to check: COc1cc(C(=O)OCc2c(OC(C)C)ccc3c(C)c(Cc4ccccc4)c(=O)oc23)cc(OC)c1OC 91

Another compound to check: COc1ccc(Cc2c(C)c3ccc(OC(C)C)c(COC(=O)/C=C/c4ccccc4)c3oc2=O)cc1 94
